- Test system: LG0703-F948-PDC complex spheroid viability
- TEST_NAME: Anticancer human tumor LG0703-F948-PDC patient-derived lung adenocarcinoma cell line growth inhibition [RAS]
- CONDITION_DESCRIPTION: curve of first compound; second compound 0.1 µM
ENDPOINT_LABEL: IC50 (nM)
Form entry: value (nM) — number only.

[
  {
    "MOLECULE": "Nc1ccn(C2OC(CO)C(O)C2(F)F)c(=O)n1 (configuration not stated) + C#Cc1c(F)ccc2cc(O)cc(-c3ncc4c(N5CC6CCC(C5)N6)nc(OCC56CCCN5CC(F)C6)nc4c3F)c12",
    "TARGET_DESC": "LG0703-F948-PDC complex spheroid viability",
    "MEASUREMENT_UNITS": "nM",
    "RESULT_VALUE": 8.21
  },
  {
    "MOLECULE": "Cc1nc(N2CCC3(CC2)COC(C)C3N)c(CO)nc1Sc1ccnc(N)c1Cl (configuration not stated) + C#Cc1c(F)ccc2cc(O)cc(-c3ncc4c(N5CC6CCC(C5)N6)nc(OCC56CCCN5CC(F)C6)nc4c3F)c12",
    "TARGET_DESC": "LG0703-F948-PDC complex spheroid viability",
    "MEASUREMENT_UNITS": "nM",
    "RESULT_VALUE": 287
  },
  {
    "MOLECULE": "CCC(CC)c1cc(NC2CCC(N)C2)n2nccc2n1 (configuration not stated) + C#Cc1c(F)ccc2cc(O)cc(-c3ncc4c(N5CC6CCC(C5)N6)nc(OCC56CCCN5CC(F)C6)nc4c3F)c12",
    "TARGET_DESC": "LG0703-F948-PDC complex spheroid viability",
    "MEASUREMENT_UNITS": "nM",
    "RESULT_VALUE": 1120
  },
  {
    "MOLECULE": "CC1(O)CCCC1n1c(=O)c(C(F)F)cc2cnc(NC3CCN(S(C)(=O)=O)CC3)nc21 (configuration not stated) + C#Cc1c(F)ccc2cc(O)cc(-c3ncc4c(N5CC6CCC(C5)N6)nc(OCC56CCCN5CC(F)C6)nc4c3F)c12",
    "TARGET_DESC": "LG0703-F948-PDC complex spheroid viability",
    "MEASUREMENT_UNITS": "nM",
    "RESULT_VALUE": 7250
  }
]

// next entry
Hey, LG0703-F948-PDC complex spheroid viability data for C=CC(=O)Nc1cc(Nc2nccc(-c3cn(C)c4ccccc34)n2)c(OC)cc1N(C)CCN(C)C + C=CC(=O)N1CCN(c2nc(OCC3CCCN3C)nc3c(F)c(-c4nc(N)cc(C)c4C(F)(F)F)c(Cl)cc23)C(C)C1 : IC50 came out at 8.29

* * *

- Tested on: LG0703-F948-PDC complex spheroid viability
- TEST_NAME: Anticancer human tumor LG0703-F948-PDC cell line growth inhibition [RAS];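 note: spheroids exposed to agents for 7 days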;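 for viability, T/C: 100% = DMSO vehicle wells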
- CONDITION_DESCRIPTION: second compound 0.000949 µM; first compound 0.316 µM; stronger effect = lower value
Measured viability, T/C by item
Form entry: value (%) — number only.

Look over these answered cases.
[
  {
    "COMPOUND": "CC(C)NCC(C(=O)N1CCN(c2ncnc3c2C(C)CC3O)CC1)c1ccc(Cl)cc1 (centres undefined) + CCn1c(-c2cc(N3CCN(C)CC3)cnc2C(C)OC)c2c3cc(ccc31)-c1csc(n1)CC(NC(=O)C1CC1C)C(=O)N1CCCC(N1)C(=O)OCC(C)(C)C2",
    "viability, T/C (%)": 37.1
  },
  {
    "COMPOUND": "CC(C)NCC(C(=O)N1CCN(c2ncnc3c2C(C)CC3O)CC1)c1ccc(Cl)cc1 (centres undefined) + CCn1c(-c2cccnc2C(C)OC)c2c3cc(ccc31)N1CCOC(CC(NC(=O)C(C(C)C)N(C)C(=O)C3(F)CCN(C(=O)C#CC(C)(C)N(C)C)CC3)C(=O)N3CCCC(N3)C(=O)OCC(C)(C)C2)C1",
    "viability, T/C (%)": 73.6
  },
  {
    "COMPOUND": "CC(Nc1ccc2c(c1)OCCn1cc(N3C(=O)OCC3C(F)F)nc1-2)C(N)=O (centres undefined) + CCn1c(-c2cc(N3CCN(C)CC3)cnc2C(C)OC)c2c3cc(ccc31)-c1csc(n1)CC(NC(=O)C1CC1C)C(=O)N1CCCC(N1)C(=O)OCC(C)(C)C2",
    "viability, T/C (%)": 37.9
  }
]

Lab note: measured viability, T/C of Cc1nc(N2CCC3(CC2)COC(C)C3N)c(CO)nc1Sc1ccnc(N)c1Cl (centres undefined) + CCn1c(-c2cccnc2C(C)OC)c2c3cc(ccc31)N1CCOC(CC(NC(=O)C(C(C)C)N(C)C(=O)C3(F)CCN(C(=O)C#CC(C)(C)N(C)C)CC3)C(=O)N3CCCC(N3)C(=O)OCC(C)(C)C2)C1 was 61.6
